Taken from patent US4349545A.

A set of compounds tested on Streptococcus pyogenes A 561, with measured MIC:
Measured Attribute: MIC (µg/mL)

As a guide, the following entries are already answered.
[
  {
    "Compound": "CC[C@H]1OC(=O)[C@H](C)[C@@H](O[C@H]2C[C@@](C)(OC)[C@@H](O)[C@H](C)O2)[C@H](C)[C@@H](O[C@@H]2O[C@H](C)C[C@H](N(C)C)[C@H]2O)[C@](C)(O)C[C@@H](C)C(=NOCCN(C(C)C)C(C)C)[C@H](C)[C@@H](O)[C@]1(C)O [Example 41]",
    "Measured Attribute": "MIC",
    "Endpoint Result": 0.05
  },
  {
    "Compound": "CC[C@H]1OC(=O)[C@H](C)[C@@H](O[C@H]2C[C@@](C)(OC)[C@@H](O)[C@H](C)O2)[C@H](C)[C@@H](O[C@@H]2O[C@H](C)C[C@H](N(C)C)[C@H]2O)[C@](C)(O)C[C@@H](C)C(=NOCC2OCCO2)[C@H](C)[C@@H](O)[C@]1(C)O [Example 30]",
    "Measured Attribute": "MIC",
    "Endpoint Result": 0.05
  }
]

P: CC[C@H]1OC(=O)[C@H](C)[C@@H](O[C@H]2C[C@@](C)(OC)[C@@H](O)[C@H](C)O2)[C@H](C)[C@@H](O[C@@H]2O[C@H](C)C[C@H](N(C)C)[C@H]2O)[C@](C)(O)C[C@@H](C)C(=NOCCN2CCOCC2)[C@H](C)[C@@H](O)[C@]1(C)O [Example 35]
Q: CC[C@H]1OC(=O)[C@H](C)[C@@H](O[C@H]2C[C@@](C)(OC)[C@@H](O)[C@H](C)O2)[C@H](C)[C@@H](O[C@@H]2O[C@H](C)C[C@H](N(C)C)[C@H]2O)[C@](C)(O)C[C@@H](C)C(=NOCCN(CC)CC)[C@H](C)[C@@H](O)[C@]1(C)O [Example 31]
Field: lower MIC | Options: P / Q Use the label to indicate which entry you chose.
Q
(Q: 0.02 µg/mL, P: 0.05 µg/mL)

====

test system: Staphylococcus aureus UC 1128; test: serial dilution liquid medium MIC, Staphylococcus aureus UC 1128 pen-resistant; format: cell-based; settings: UC1128; Staphylococcus aureus UC 1128 pen-resistant; 24 hours at 37° C.; read-out: minimum inhibiting concentration (MIC)
MIC reference
Numbers only here, please. The scale is µg/mL.

[
  {
    "Compound": "CC[C@H]1OC(=O)[C@H](C)[C@@H](O[C@H]2C[C@@](C)(OC)[C@@H](O)[C@H](C)O2)[C@H](C)[C@@H](O[C@@H]2O[C@H](C)C[C@H](N(C)C)[C@H]2O)[C@](C)(O)C[C@@H](C)C(=NOCCN(CC)CC)[C@H](C)[C@@H](O)[C@]1(C)O",
    "Endpoint Result": 1
  }
]

# next compound below
Fill blank: measured MIC of the compound CCSCC(O)CON=C1[C@H](C)C[C@@](C)(O)[C@H](O[C@@H]2O[C@H](C)C[C@H](N(C)C)[C@H]2O)[C@@H](C)[C@H](O[C@H]2C[C@@](C)(OC)[C@@H](O)[C@H](C)O2)[C@@H](C)C(=O)O[C@H](CC)[C@@](C)(O)[C@H](O)[C@H]1C (some centres unmarked) is ____.
0.6
